Attribution: the supplement of paper PMC11208160

Test: recombinant barcode read abundance after kanamycin selection (control-corrected) (log10(CPM+1)); higher = more efficient recombination; sequences stand for … in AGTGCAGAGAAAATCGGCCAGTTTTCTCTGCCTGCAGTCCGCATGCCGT…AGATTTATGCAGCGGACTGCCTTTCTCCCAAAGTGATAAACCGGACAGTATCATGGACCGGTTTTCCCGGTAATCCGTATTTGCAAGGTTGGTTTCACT; site = the 11-nt target;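 note: IS621 recombinase and bridge RNA in Escherichia coli cells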
Overview of recorded recombinant barcode read abundance (log10) for various sequences

Fill in: recombinant barcode read abundance (log10) of ATAAATGCTTGGGTTCTAACCTGTTGCCT (site ATAAGGGCTAG) is ___
0.0428

Fill in: recombinant barcode read abundance (log10) of TGCCTCTCTTGGGTTCTAACCTGTTGCTA (site TGCCTCTCTTA) is ___
0.279

Fill in: recombinant barcode read abundance (log10) of CGGCACACTTGGGTTCTAACCTGTTGCCT (site CGACACACTAG) is ___
0.239

Fill in: recombinant barcode read abundance (log10) of GGCCGGTCTTGGGTTCTAACCTGTTGCCT (site GGCCGGACTAG) is ___
0

Fill in: recombinant barcode read abundance (log10) of CTGCGCTCTTGGGTTCTAACCTGTTGCAT (site TGTGAGCCTTC) is ___
0.0268

Fill in: recombinant barcode read abundance (log10) of AACTTAACTTGGGTTCTAACCTGTTGCCT (site AACTGAACTAG) is ___
0.09

Others:
Fill in: recombinant barcode read abundance (log10) of AGCCCTCCTTGGGTTCTAACCTGTTGCAG (site AGCCCTCCTCT) is ___
1.86

Fill in: recombinant barcode read abundance (log10) of CATTAGTCTTGGGTTCTAACCTGTTGCCT (site CATTAGTCTAG) is ___
1.33

Fill in: recombinant barcode read abundance (log10) of AGTATCCCTTGGGTTCTAACCTGTTGCCG (site AGTATCCCTCG) is ___
0.461

Fill in: recombinant barcode read abundance (log10) of AATTGTCCTTGGGTTCTAACCTGTTGCTT (site AATTGTCCTAC) is ___
0.257

Fill in: recombinant barcode read abundance (log10) of AGGGTAGCTTGGGTTCTAACCTGTTGCCT (site AGGGTAGCTAG) is ___
1.04

Fill in: recombinant barcode read abundance (log10) of CGTAGAGCTTGGGTTCTAACCTGTTGCCT (site CGTAGAGCTAG) is ___
0.349

Fill in: recombinant barcode read abundance (log10) of TTGGTCGCTTGGGTTCTAACCTGTTGCCT (site TTGGACGCTAG) is ___
0.0736

Fill in: recombinant barcode read abundance (log10) of CTGCGCTCTTGGGTTCTAACCTGTTGCAT (site CTGCGCTCTAT) is ___
1.22

Fill in: recombinant barcode read abundance (log10) of GAGACTCCTTGGGTTCTAACCTGTTGCAC (site GAGACTCCTGT) is ___
1.17

Fill in: recombinant barcode read abundance (log10) of CTGAGCCCTTGGGTTCTAACCTGTTGCCG (site CTGAGCCCTCG) is ___
1.08

Fill in: recombinant barcode read abundance (log10) of ACTTGGACTTGGGTTCTAACCTGTTGCAT (site ACTTGTACTAT) is ___
0.0581

Fill in: recombinant barcode read abundance (log10) of GGTACTACTTGGGTTCTAACCTGTTGCCA (site ACTACTACTTG) is ___
0.0797
